reverse-splicing fitness: recorded values
B1: Azoarcus group I ribozyme (parent)
chain: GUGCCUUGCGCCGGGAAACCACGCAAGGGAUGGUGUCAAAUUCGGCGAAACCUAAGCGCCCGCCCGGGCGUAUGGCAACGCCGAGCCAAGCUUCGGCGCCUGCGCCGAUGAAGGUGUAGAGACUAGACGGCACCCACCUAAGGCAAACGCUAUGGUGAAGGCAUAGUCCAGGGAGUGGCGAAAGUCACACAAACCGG

Variants of: B1
assay-procedure: reverse-splicing fitness (ratio to wild type); higher = more active; in vitro selection; Mg2+ level not given
No unit in the answer, please; the number alone is enough.

{"columns": ["mutation", "reverse-splicing fitness"],
 "data": [
  ["C82A A111C A120C C150G C169U U176C", 0.0102]
]}

For the variant C82A A111C A120G A145C C150A , report reverse-splicing fitness.
0.00818

For the variant C82U A120C A145C U176A , report reverse-splicing fitness.
0.0438

For the variant A111C A120G C150A C169U U176C , report reverse-splicing fitness.
0.024

For the variant C82U A111G A120C A145G C150G C169G U176C , report reverse-splicing fitness.
0.00625

For the variant C82A A111C A145C C150G C169U U176A , report reverse-splicing fitness.
0.00753
